Recorded measurements of activity at 10 µM, one per entry
# Tested on: MDA-MB-435
# experiment-description: NCI 60 cell line screen
# Assay type: cell-based
# condition: Homo sapiens; MDA-MB-435, Melanoma; read-out: Percent growth
assay-endpoint: activity at 10 µM

[
  {
    "compound": "O=S(=O)(NCCNc1nccc(-n2cnc3ccccc32)n1)c1ccc(Cl)cc1 [12c]",
    "experimental-value": "100%"
  },
  {
    "compound": "O=S(=O)(NCCNc1nccc(-n2cnc3ccccc32)n1)c1ccc(C(F)(F)F)cc1 [12e]",
    "experimental-value": "64.4%"
  },
  {
    "compound": "O=S(=O)(NCCNc1nccc(-n2cnc3ccccc32)n1)c1ccc(F)cc1 [12b]",
    "experimental-value": "97.7%"
  },
  {
    "compound": "O=S(=O)(NCCCNc1nccc(-n2cnc3ccccc32)n1)c1ccc(Cl)cc1 [12j]",
    "experimental-value": "95.5%"
  },
  {
    "compound": "O=S(=O)(NCCNc1nccc(-n2cnc3ccccc32)n1)c1ccc(Br)cc1 [12d]",
    "experimental-value": "108%"
  }
]
